# Experiment Notes: Cmax in Sprague-Dawley rat at 20 mg/kg, po after 24 hrs by LC/MS/MS analysis
# Assay type: ADME, organism-based
# Parameters: dose 20 mg/kg, route oral
# Condition Notes: in vivo

>  <Compound>
C/C=C/C[C@@H](C)[C@@H](O)[C@H]1C(=O)N[C@@H](CC)C(=O)N(C)C(SCCN(C)C)C(=O)N(C)[C@@H](CC(C)(C)O)C(=O)N[C@@H](C(C)C)C(=O)N(C)[C@@H](CC(C)C)C(=O)N[C@@H](C)C(=O)N[C@H](C)C(=O)N(C)[C@@H](CC(C)C)C(=O)N(C)[C@@H](CC(C)C)C(=O)N(C)[C@@H](C(C)C)C(=O)N1C (single isomer, unassigned)

>  <Cmax>
1760 ng/mL

$$$$

----------
# Experiment Notes: Oral bioavailability in monkey at 7.5 mg/kg after 24 hrs by LC/MS/MS analysis
# Assay type: ADME, organism-based, Macaca mulatta
# Condition Notes: rhesus monkey, in vivo

>  <Molecule>
C/C=C/C[C@@H](C)[C@@H](O)[C@H]1C(=O)N[C@@H](CC)C(=O)N(C)C(SCCN(C)C)C(=O)N(C)[C@@H](CC(C)(C)O)C(=O)N[C@@H](C(C)C)C(=O)N(C)[C@@H](CC(C)C)C(=O)N[C@@H](C)C(=O)N[C@H](C)C(=O)N(C)[C@@H](CC(C)C)C(=O)N(C)[C@@H](CC(C)C)C(=O)N(C)[C@@H](C(C)C)C(=O)N1C (single isomer, unassigned) [SCY 635]

>  <bioavailability / %>
15.7

$$$$

----------
# Experiment Notes: Apparent elimination half life in monkey at 1 mg/kg, iv by LC/MS/MS analysis
# Assay type: ADME, organism-based, Macaca mulatta
# Parameters: dose 1 mg/kg, route intravenous
# Condition Notes: rhesus monkey, in vivo
Quantity Kind: half-life

>  <Compound>
C/C=C/C[C@@H](C)[C@@H](O)[C@H]1C(=O)N[C@@H](CC)C(=O)N(C)C(SCCN(C)C)C(=O)N(C)[C@@H](CC(C)(C)O)C(=O)N[C@@H](C(C)C)C(=O)N(C)[C@@H](CC(C)C)C(=O)N[C@@H](C)C(=O)N[C@H](C)C(=O)N(C)[C@@H](CC(C)C)C(=O)N(C)[C@@H](CC(C)C)C(=O)N(C)[C@@H](C(C)C)C(=O)N1C (single isomer, unassigned) [SCY 635]

>  <Quantity Kind>
half-life

>  <Result>
22.3 h

$$$$

----------
# Test system: Hepatocyte
# Experiment Notes: Cellular uptake in human hepatocytes assessed per mg of cellular protein association with hepatocyte fraction at 2.27 uM after 1 hr by LC/MS/MS analysis
# Assay type: ADME, cell-based

>  <Compound>
C/C=C/C[C@@H](C)[C@@H](O)[C@H]1C(=O)N[C@@H](CC)C(=O)N(C)C(SCCN(C)C)C(=O)N(C)[C@@H](CC(C)(C)O)C(=O)N[C@@H](C(C)C)C(=O)N(C)[C@@H](CC(C)C)C(=O)N[C@@H](C)C(=O)N[C@H](C)C(=O)N(C)[C@@H](CC(C)C)C(=O)N(C)[C@@H](CC(C)C)C(=O)N(C)[C@@H](C(C)C)C(=O)N1C (single isomer, unassigned)

>  <Drug uptake>
6.05 ng/mg

$$$$

----------
# Experiment Notes: AUC (0 to infinity) in Sprague-Dawley rat at 20 mg/kg, po after 24 hrs by LC/MS/MS analysis
# Type: ADME, organism-based
# Parameters: time infinity, dose 20 mg/kg, route oral
# Condition Notes: plasma

>  <Molecule>
C/C=C/C[C@@H](C)[C@@H](O)[C@H]1C(=O)N[C@@H](CC)C(=O)N(C)C(SCCN(C)C)C(=O)N(C)[C@@H](CC(C)(C)O)C(=O)N[C@@H](C(C)C)C(=O)N(C)[C@@H](CC(C)C)C(=O)N[C@@H](C)C(=O)N[C@H](C)C(=O)N(C)[C@@H](CC(C)C)C(=O)N(C)[C@@H](CC(C)C)C(=O)N(C)[C@@H](C(C)C)C(=O)N1C (single isomer, unassigned)

>  <AUC(0-inf) (ng·h/mL)>
42500

$$$$

Source listed as ChEMBL document CHEMBL1212786.
